Source of measurements: ChEMBL document CHEMBL1201862

# System: SK-MEL-28
# PROTOCOL DETAILS: NCI tumour cell line growth inhibition, 48 h
Calls of active or inactive are those of the source. No stated cut-off is given here; in the data, active = GI50 up to about 1.1 µM and inactive = higher.
Could you please report measured GI50 for the items listed next?

INPUT: Give reported GI50 value for `O=C(/C(Cl)=C/c1ccccc1)c1ccccc1`
OUTPUT: 2.29 µM (inactive)

INPUT: Give reported GI50 value for `Cc1cc(-c2ccccc2)nc2oc(=O)n(C)c12`
OUTPUT: > 100 µM (inactive)

INPUT: Give reported GI50 value for `CN(N)/N=N/c1[nH]cnc1C(N)=O`
OUTPUT: > 100 µM (inactive)

INPUT: Give reported GI50 value for `O=c1c2cc3c(cc2c2cccc4c2n1CCC4)OCO3`
OUTPUT: 69.5 µM (inactive)

INPUT: Give reported GI50 value for COCC1N=C(c2cc(OC)c(OC)c(OC)c2-c2cc3c(cc2C2OCCCO2)OCO3)O[C@H]1c1ccccc1 (stereo partly specified)
OUTPUT: > 100 µM (inactive)

INPUT: Give reported GI50 value for `COc1ccc(N2CCN(Cc3c(C(C)=O)[n+]([O-])c4ccccc4[n+]3[O-])CC2)cc1`
OUTPUT: 43.3 µM (inactive)
